Measured pKd, listed per entry for reference.
biological target: transforming growth factor-β1 (TGF-β1) (human) (UniProt P01137); test: equilibrium binding
Sequence (P01137 279-390 limits assumed): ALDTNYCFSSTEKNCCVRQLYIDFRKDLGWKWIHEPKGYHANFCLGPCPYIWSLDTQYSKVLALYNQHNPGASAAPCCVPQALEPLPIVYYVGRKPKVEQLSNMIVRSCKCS
The read-out pKd is expressed as -log10 of concentration in moles per litre.

Example entries and their recorded answers appear below.
INSERT INTO results (binder, recorded_measurement) VALUES
  ('QPSHISKYILRWRPK [peptide 1A (FN634-648) …]', 6.36),
  ('NGQTPIQRTIKPDVRSYTITGLQPGT [peptide 3 …]', 6.85);

Item QPSVGQQMIFEEHGFRRTTPPTTAT [peptide 4 (FN2043-2067) …] : provide pKd
7.00
